Provenance of the data: ChEMBL document CHEMBL1156829

System: Plasmodium falciparum
Test: NOVARTIS: Inhibition of Plasmodium falciparum 3D7 (drug-susceptible) proliferation in erythrocyte-based infection assay
Assay type: functional, organism-based
Details: Plasmodium falciparum, 3D7
pEC50: −log10 of the molar value.
Label scheme for pEC50: lower than 6 is Not satisfied, 6 and above is Satisfied.

Sample answers from the record:
NS(=O)(=O)c1ccc(N/C=C/C(=O)c2ccc(Cl)s2)cc1 : Not satisfied
COc1ccccc1NC(=O)N(Cc1ccccc1)C(C)c1nc2ccccc2c(=O)n1-c1cc(C)ccc1OC (stereo unspecified) : Satisfied
CSc1ccc(Cl)c(Cl)c1 : Satisfied
COc1ccc(C2N=C(N)N=C(N)N2c2ccc(Cl)cc2)cc1OC (stereo unspecified) : Satisfied

As a next step, examine the compound that follows.
Input line: Does pEC50 meet or surpass 6 for "CSc1nnc(NC(=O)C2CC2)s1" ?
Output line: Not satisfied

* * *

Entries annotated with measured CC50
Experiment: NOVARTIS: Cytotoxicity against human hepatocellular carcinoma cell line (Huh7)
Format: toxicity, cell-based, Huh-7
Conditions: Huh7 cells (hepatocellular carcinoma cell line)

// solved cases for CC50 follow
CC(=O)Nc1nc(C)c(-c2csc(Nc3ccc(Cl)cc3)n2)s1 : 34.4 µM
COc1ccc(C=C2N=C(c3ccc(Cl)cc3)N(c3ccccc3)C2=O)cc1OC : > 100 µM
NCCCCCCNC(=S)Nc1ccccc1 : > 10 µM
COCC(=O)NC(c1ccccc1)c1cc(Cl)c2cccnc2c1O (stereo unspecified) : > 10 µM

Input line: Recorded CC50 for "COc1ccc(S(=O)(=O)N2CCN(C(=S)NC3CCCCC3)CC2)cc1" , please?
Output line: > 100 µM

Input line: Next entry: "Cc1n(N)c2ccccc2[n+]1CC(=O)c1ccc([N+](=O)[O-])cc1"
Output line: > 100 µM

* * *

Test: NOVARTIS: Cytotoxicity against human hepatocellular carcinoma cell line (Huh7)
Assay type: toxicity, cell-based, Huh-7
Conditions: Huh7 cells (hepatocellular carcinoma cell line)
endpoint: CC50 (µM)
Give the value, in units of µM, as a plain number.

COc1ccc(-c2nc(NC(=O)CS(=O)(=O)c3ccc(F)cc3)sc2C)cc1 : 44.1

Next up:
Input line: Recorded CC50 for CCc1ccc(NC(=O)c2ccc(F)c(S(=O)(=O)NC3CCCC(C)C3C)c2)cc1 (stereo not given) , please?
Output line: 66

* * *

Entries annotated with measured CC50
Experiment: NOVARTIS: Cytotoxicity against human hepatocellular carcinoma cell line (Huh7)
Assay type: toxicity, cell-based, Huh-7
Conditions: Huh7 cells (hepatocellular carcinoma cell line)

// solved cases for CC50 follow
COc1cc(C(=O)NC2CC2)ccc1OC1CCN(CC(c2ccccc2)c2ccccc2)CC1 : 23.5 µM
CCN1/C(=C\C=C\C2=[N+](C)c3ccccc3C2(C)C)N(c2ccccc2)c2ccccc21 : > 10 µM
CCOC(=O)c1cnc2c(C)cccc2c1Nc1cccc(C(C)=O)c1 : > 100 µM
CCC(c1nc2ccccc2c(=O)n1-c1ccccc1OC)N(CCc1ccccc1)C(=O)Nc1ccccc1OC (stereo unspecified) : > 10 µM
Cc1nnc2sc(SCc3ccc([N+](=O)[O-])cc3)nn2c1=O : > 10 µM

Input line: Recorded CC50 for O=C(NCC1CCCO1)c1cnc(NCCCn2ccnc2)nc1NCCc1ccccc1 (stereo unspecified) , please?
Output line: > 10 µM

Input line: Next entry: "Cc1cccc[n+]1CCCCCCCCCC[n+]1ccccc1C"
Output line: > 100 µM

Input line: Next entry: CCOC(=O)C1=C(C)NC2=C(C(=O)CC(C)(C)C2)C1c1cc(I)sc1SC (stereo unspecified)
Output line: > 100 µM

Input line: Next entry: "CCOC(=O)c1ccc(NC(=O)CSc2nc(NCc3ccccc3)c3ccccc3n2)cc1"
Output line: > 10 µM

Input line: Next entry: "CC(C)CNC(=O)c1cnc(NCCCn2ccnc2)nc1NC1CCCC1"
Output line: > 10 µM

* * *

Assay: NOVARTIS: Cytotoxicity against human hepatocellular carcinoma cell line (Huh7)
Type: toxicity, cell-based, Huh-7
Settings: Huh7 cells (hepatocellular carcinoma cell line)
endpoint: CC50

// solved cases for CC50 follow
CC1CCC(C(C)C)C(OC(=O)Cn2c(-c3ccccc3)[n+](C)c3ccccc32)C1 (stereo not given) : > 11.2 µM
OC(CNC1CCCCC1)Cn1c2ccc(Cl)cc2c2cc(Cl)ccc21 (stereo not given) : 57.3 µM
CC(C)(C)c1cc(Br)cc(C=NNc2ccc([N+](=O)[O-])cc2)c1O : > 10 µM
Cc1cc(C(C)(C)C)cc(S(=O)(=O)NCCO)c1C : > 100 µM
O=C(COC(=O)c1c2c(nc3ccccc13)CCCCCCCCCC2)c1ccc(Cl)cc1 : > 100 µM
CC(=O)N(C1=C(N2CCCC2)C(=O)c2ccccc2C1=O)c1ccc(F)c(F)c1 : 20.2 µM
NNC(=O)CNC(c1ccccc1)c1cc(Br)ccc1NC(=O)c1ccccc1Br (stereo not given) : > 100 µM
CCN(CC)CCCNC(=S)N(CCN(C)C)Cc1cc2cc(C)cc(C)c2[nH]c1=O : > 100 µM
Cn1c2ccncc2c2cc([N+](=O)[O-])ccc21 : 31.4 µM

Next up:
Input line: Recorded CC50 for "COc1cccc(NC(=O)c2cccc3c(=O)c4c([nH]c23)CCCC4)c1" , please?
Output line: > 100 µM

* * *

Assay: NOVARTIS: Cytotoxicity against human hepatocellular carcinoma cell line (Huh7)
Assay type: toxicity, cell-based, Huh-7
Conditions: Huh7 cells (hepatocellular carcinoma cell line)
Entries annotated with measured CC50

// solved cases for CC50 follow
Cc1ccc(-c2nnc(N3CCOCC3)c3ccccc23)cc1S(=O)(=O)N1CCN(C)CC1 : > 10 µM
CCCCn1nccc1Nc1cc(C)c(C#N)c2nc3ccccc3n12 : > 100 µM
COc1ccc(C2N(Cc3ccccc3)c3ccccc3N2Cc2ccccc2)cc1 : 53 µM
Oc1ccc(Br)cc1CN1CCN(c2ccccn2)CC1 : 34.6 µM
CCN(CC)CCCNC(=S)N(CCN(CC)CC)Cc1cc2ccc(C)c(C)c2[nH]c1=O : 51.1 µM

Next up:
Input line: Recorded CC50 for COc1ccc(C2CC(=O)C3=C(C2)NC(C)=C(C(=O)OC2CCCC2)C3c2ccccc2)cc1 (stereo unspecified) , please?
Output line: > 100 µM

* * *

Experiment: NOVARTIS: Cytotoxicity against human hepatocellular carcinoma cell line (Huh7)
Type: toxicity, cell-based, Huh-7
Conditions: Huh7 cells (hepatocellular carcinoma cell line)
Entries annotated with measured CC50

// solved cases for CC50 follow
Cc1ccc2c(c1)C(C)(c1ccc(Cl)cc1)CC(C)(C)N2C(=O)COc1ccc2ccccc2c1 (stereo unspecified) : > 100 µM
CC(C)(C)CC(C)(C)Nc1c(-c2ccccc2OC(=O)C2CCCC2)nc2ccccn12 : > 10 µM

Input line: Recorded CC50 for "N#Cc1ccccc1N1CCCCC1" , please?
Output line: > 100 µM

Input line: Next entry: "COc1cc(-c2cc(C(F)(F)F)n3ncc(C(=O)Nc4cc(C)ccc4O)c3n2)cc(OC)c1OC"
Output line: > 100 µM

Input line: Next entry: CC(=O)Nc1ccc2c(c1)C(=O)N(C(CC(C)(C)C)C(=O)NC1CCCCC1)[C@@H](CCC(=O)O)C(=O)N2 (stereo partly specified)
Output line: 6.18 µM

Input line: Next entry: "CCn1c(-c2ccc(O)cc2)nn(CN2CCN(Cc3ccc4c(c3)OCO4)CC2)c1=S"
Output line: > 10 µM

Input line: Next entry: "O=c1cc(NC2CCN(CCCc3ccccc3)CC2)c2cc(Cl)ccc2o1"
Output line: 20.5 µM

* * *

Entries annotated with measured log10 of EC50
System: Plasmodium falciparum
Assay: NOVARTIS: Inhibition of Plasmodium falciparum W2 (drug-resistant) proliferation in erythrocyte-based infection assay
Assay type: functional, organism-based
Settings: Plasmodium falciparum, W2; read-out: EC50
Heads up: the numbers are on a log10 scale; they represent EC50 in nM.

// solved cases for log10 of EC50 follow
COc1ccc(C2C(C(N)=O)=C(C)Nc3ncnn32)cc1OC (stereo not given) : 3.06
CCOc1cccc(C2=Nc3cc(C(=O)NC(C)C)ccc3CN2CC2CCCCC2)c1 : 1.43
Clc1ccc(-c2c[n+](Cc3ccccc3Cl)c3n2CCC3)cc1 : 2.58
Cc1ccnc(NC(c2ccncc2)c2ccc3cccnc3c2O)c1 (stereo not given) : 2.55
CC(C)Cc1ccc(-c2csc(NC(=O)C3C4CCC(C4)C3C(=O)O)n2)cc1 (stereo not given) : 3.27

Input line: Recorded log10 of EC50 for "CC[n+]1c(/C=C/C=C2\N(C)c3ccccc3C2(C)C)n(CCCOC(C)=O)c2ccccc21" , please?
Output line: 2.62

Input line: Next entry: CN1CCCN(C(=O)C2CC23CCN(Cc2ccc(N(C)c4ccccc4)cc2)CC3)CC1 (stereo not given)
Output line: 3.41

Input line: Next entry: "COc1ccc2c(ccc(/C=C3\C=CC=CN3C)[n+]2C)c1"
Output line: 2.95

Input line: Next entry: "CCCN(CCC)CCCNc1ccc(C(=O)Nc2cccc(OC)c2)cc1[N+](=O)[O-]"
Output line: 2.51
